system: NFkB; experiment: STING THP1 Reporter Assay, NF-κB pathway (SEAP); format: cell-based; conditions: THP1-Dual cells, 10% human plasma, 20 hours; SEAP readout (OD620); 100% activation = 100 μM cGAMP; read-out: THP1 Reporter Assays EC50 (μM) NFkB
OBSERVATION_TYPE: EC50 (µM)

COMPOUND	MEASURE_UNIT	EC50
Nc1ncnc2c1ncn2[C@@H]1O[C@@H]2COP(=O)(S)O[C@@H]3[C@H](O)[C@@H](COP(=O)(S)O[C@H]2[C@H]1F)O[C@H]3n1cnc2c(=O)[nH]c3nccn3c21 (single isomer, unassigned) [Example 1-3]	µM	27

P = Nc1ncnc2c1ncn2[C@@H]1O[C@@H]2COP(=O)(S)O[C@@H]3[C@H](O)[C@@H](COP(=O)(S)O[C@H]2[C@H]1F)O[C@H]3n1cnc2c(=O)[nH]c3nccn3c21 (single isomer, unassigned) [Example 1-2]
Q = Nc1ncnc2c1ncn2[C@@H]1O[C@@H]2COP(=O)(S)O[C@@H]3[C@H](O)[C@@H](COP(=O)(S)O[C@H]2[C@H]1F)O[C@H]3n1cnc2c(=O)[nH]c3nccn3c21 (single isomer, unassigned) [Example 1-4]
query: Field: entry with larger EC50 (options P / Q ). Field: selected label. Fill in the label of the entry you choose.
result: P
(P: 21 µM, Q: 3 µM)

----------
target: STING AQ: His-TVMV-S-hSTING(155-341)-G230A-R293Q (Homo sapiens, UniProt Q86WV6, G230A/H232R/R293Q); construct: STING AQ: His-TVMV-S-hSTING(155-341)-G230A-R293Q; test: STING HTRF Binding Assay (time resolved FRET competition), STING AQ; conditions: 20 nM His-tagged STING cytoplasmic domain AQ, 40 nM fluorescein-labeled cGAMP analog probe, one hour; read-out: HTRF Binding Assays EC50 (μM) STING AQ
Sequence (Q86WV6 with tags, fused parts or gaps G230A/H232R/R293Q): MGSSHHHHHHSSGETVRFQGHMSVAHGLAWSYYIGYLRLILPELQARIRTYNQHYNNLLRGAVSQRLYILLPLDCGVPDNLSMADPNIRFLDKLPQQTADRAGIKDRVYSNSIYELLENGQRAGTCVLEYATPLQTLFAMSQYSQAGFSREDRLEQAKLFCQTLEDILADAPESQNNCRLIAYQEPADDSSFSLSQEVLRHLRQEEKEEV
OBSERVATION_TYPE: EC50 (µM)

P = Nc1ncnc2c1ncn2[C@@H]1O[C@@H]2COP(=O)(O)O[C@@H]3[C@H](O)[C@@H](COP(=O)(O)O[C@H]2[C@H]1N)O[C@H]3n1cnc2c(=O)[nH]c3nccn3c21 [Example 3]
Q = Nc1ncnc2c1ncn2[C@@H]1O[C@@H]2COP(=O)(O)O[C@@H]3[C@H](O)[C@@H](COP(=O)(O)O[C@H]2[C@H]1F)O[C@H]3n1cnc2c(=O)[nH]c3nccn3c21 [Example 2]
query: Hi there, can you help? I need to know whether P or Q has lower measured EC50. Write the label of whichever entry you select.
result: Q

----------
target: STING AQ: His-TVMV-S-hSTING(155-341)-G230A-R293Q (Homo sapiens, UniProt Q86WV6, G230A/H232R/R293Q); construct: STING AQ: His-TVMV-S-hSTING(155-341)-G230A-R293Q; assay: STING HTRF Binding Assay (time resolved FRET competition), STING AQ; conditions: 20 nM His-tagged STING cytoplasmic domain AQ, 40 nM fluorescein-labeled cGAMP analog probe, one hour; read-out: HTRF Binding Assays EC50 (μM) STING AQ
OBSERVATION_TYPE: EC50 (µM)

COMPOUND	OBSERVATION_TYPE	MEASURE_UNIT	RECORDED_VALUE
Nc1ncnc2c1ncn2[C@@H]1O[C@@H]2COP(=O)(S)O[C@@H]3[C@H](O)[C@@H](COP(=O)(S)O[C@H]2[C@H]1F)O[C@H]3n1cnc2c(=O)[nH]c3nccn3c21 (single isomer, unassigned) [Example 1-1]	EC50	µM	0.07

A = Nc1ncnc2c1ncn2[C@@H]1O[C@@H]2COP(=O)(S)O[C@@H]3[C@H](O)[C@@H](COP(=O)(S)O[C@H]2[C@H]1F)O[C@H]3n1cnc2c(=O)[nH]c3nccn3c21 (single isomer, unassigned) [Example 1-3]
B = Nc1ncnc2c1ncn2[C@@H]1O[C@@H]2COP(=O)(S)O[C@@H]3[C@H](O)[C@@H](COP(=O)(S)O[C@H]2[C@H]1F)O[C@H]3n1cnc2c(=O)[nH]c3nccn3c21 (single isomer, unassigned) [Example 1-2]
query: Field: lower EC50 | Options: A / B Response format: the label of the selected entry.
result: B

----------
biological target: STING WT: His-TVMV-S-hSTING(155-341)-H232R (Homo sapiens, UniProt Q86WV6, H232R); construct: STING WT: His-TVMV-S-hSTING(155-341)-H232R; test: STING HTRF Binding Assay (time resolved FRET competition), STING WT; conditions: 20 nM His-tagged STING cytoplasmic domain WT, 200 nM fluorescein-labeled cGAMP analog probe, one hour; read-out: HTRF Binding Assays EC50 (μM) STING WT
Sequence (Q86WV6 with tags, fused parts or gaps H232R): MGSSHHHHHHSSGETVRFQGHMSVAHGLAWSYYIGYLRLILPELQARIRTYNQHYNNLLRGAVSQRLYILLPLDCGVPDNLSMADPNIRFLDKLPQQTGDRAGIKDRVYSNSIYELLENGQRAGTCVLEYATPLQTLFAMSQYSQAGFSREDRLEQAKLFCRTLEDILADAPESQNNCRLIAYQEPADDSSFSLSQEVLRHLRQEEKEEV
OBSERVATION_TYPE: EC50 (µM)

MOLECULE	EC50, µM
Nc1ncnc2c1ncn2[C@@H]1O[C@@H]2COP(=O)(S)O[C@@H]3[C@H](O)[C@@H](COP(=O)(S)O[C@H]2[C@H]1F)O[C@H]3n1cnc2c(=O)[nH]c3nccn3c21 (single isomer, unassigned) [Example 1-4]	0.003

a = Nc1ncnc2c1ncn2[C@@H]1O[C@@H]2COP(=O)(O)O[C@@H]3[C@H](O)[C@@H](COP(=O)(O)O[C@H]2[C@H]1N)O[C@H]3n1cnc2c(=O)[nH]c3nccn3c21
b = Nc1ncnc2c1ncn2[C@@H]1O[C@@H]2COP(=O)(O)O[C@@H]3[C@H](O)[C@@H](COP(=O)(O)O[C@H]2[C@H]1F)O[C@H]3n1cnc2c(=O)[nH]c3nccn3c21
c = Nc1ncnc2c1ncn2[C@@H]1O[C@@H]2COP(=O)(S)O[C@@H]3[C@H](O)[C@@H](COP(=O)(S)O[C@H]2[C@H]1F)O[C@H]3n1cnc2c(=O)[nH]c3nccn3c21 (single isomer, unassigned) [Example 1-1]
query: Sort by EC50, descending. Please list the labels according to the requested order.
result: a, c, b
(a: 1.6 µM, c: 0.19 µM, b: 0.03 µM)

----------
biological target: STING WT: His-TVMV-S-hSTING(155-341)-H232R (Homo sapiens, UniProt Q86WV6, H232R); construct: STING WT: His-TVMV-S-hSTING(155-341)-H232R; experiment: STING HTRF Binding Assay (time resolved FRET competition), STING WT; settings: 20 nM His-tagged STING cytoplasmic domain WT, 200 nM fluorescein-labeled cGAMP analog probe, one hour; read-out: HTRF Binding Assays EC50 (μM) STING WT
OBSERVATION_TYPE: EC50 (µM)

a = Nc1ncnc2c1ncn2[C@@H]1O[C@@H]2COP(=O)(S)O[C@@H]3[C@H](O)[C@@H](COP(=O)(S)O[C@H]2[C@H]1F)O[C@H]3n1cnc2c(=O)[nH]c3nccn3c21 (single isomer, unassigned) [Example 1-2]
b = Nc1ncnc2c1ncn2[C@@H]1O[C@@H]2COP(=O)(S)O[C@@H]3[C@H](O)[C@@H](COP(=O)(S)O[C@H]2[C@H]1F)O[C@H]3n1cnc2c(=O)[nH]c3nccn3c21 (single isomer, unassigned) [Example 1-3]
query: Between the entries labeled a and b , whose measured EC50 is lower? Could you answer with the label of the item you picked?
result: a

----------
test system: NFkB; test: STING THP1 Reporter Assay, NF-κB pathway (SEAP); type: cell-based; conditions: Homo sapiens, THP-1, 20 h, THP1-Dual cells, 10% human plasma, SEAP readout (OD620), 100% activation = 100 μM cGAMP, read-out: THP1 Reporter Assays EC50 (μM) NFkB
OBSERVATION_TYPE: EC50 (µM)
Return type: number; implicit unit µM.

# EC50 (molecule: Nc1ncnc2c1ncn2[C@@H]1O[C@@H]2COP(=O)(O)O[C@@H]3[C@H](O)[C@@H](COP(=O)(O)O[C@H]2[C@H]1F)O[C@H]3n1cnc2c(=O)[nH]c3nccn3c21 ) is 59
